methodNotes: soluble on expression in E. coli; label from the status in PepcDB or PDB records

>  <sequenceContent>
MSLARNVPEFGMESYRIEVGRMHGVKPANIVGAIANEAGLESRYIGRIDIRDDHSVLDLPAEMPHEILQHLKKVWVSGQQLQMRRIDTTETEGHHHHHH

>  <soluble on expression in E. coli>
soluble

$$$$
>  <sequenceContent>
MIRQRRRALTPEQQQEMGQQAATRMMTYPPVVMAHTVAVFLSFDGELDTQPLIEQLWRAGKRVYLPVLHPFSAGNLLFLNYHPQSELVMNRLKIHEPKLDVRDVLPLSRLDVLITPLVAFDEYGQRLGMGGGFYDRTLQNWQHYKTQPVGYAHDCQLVEKLPVEEWDIPLPAVVTPSKVWEWMGHHHHHHSH

>  <soluble on expression in E. coli>
not soluble

$$$$
>  <sequenceContent>
MISVNDFRTGLTISVDNALWQVLDFQHVKPGKGAAFVRSKLRNLRTGSVQEKTFRAGEKVEKAHIENRRMQYLYASGEAHVFMDNGTYEQIELGEKQIERELKFLKENMEVAIMTYQGEVLGVELPNTVELQVTETEPGIKGDTASNVTKPATLETGLVVQVPIFINEGEMLIINTGEGKYVSRA

>  <soluble on expression in E. coli>
not soluble

$$$$
>  <sequenceContent>
MGKKYEIFLNENEHSLITPKVSFKEILRYYYLYPKNAIPSFKLPFFKPDLSGFSTPHITWLGHSSLFISFKEYKILIDPIFNTHASPISFINKAFKNAPVYNINDFNEIFAVIITHSHFDHLDAKSVKALKDKAKFFITPLKVGNYLKSYGVSEKKIIELDWWSGIEFGDLKIMATPAQHSSSRGDGKNKTLWASFVMEFLSVDKRVFFSADGGYFTHFKKIGEYFGSFDLACLESGQFNIAWPYSHSFPEQILKEAKDLNAKAVMPIHWGRFLAGTHAWNEVVKFLYENLDLPLITPKMGEAYEVGAKLEHHHHHH

>  <soluble on expression in E. coli>
soluble

$$$$
>  <sequenceContent>
MGSDKIHHHHHHMKVLLTRPEGRNQSMVDALNERGIEHCVTPLLCVEATPALPPETSHPLANVDMVVCISANAVSFADDTFKANDANVKGWPKVPYFAVGHATWEALQQIDIDALEAPDDCQQTEGLLTLPTLQHIQGKKITIIRGVGGREALAEQLTSRGAQVRYWEVYQRACPPLDGTIITQQWIDLGIDTVVVTSGEVLDNLINLVPKELFAWLRSCHIIVPSNRVEAQAHAFGITQVTNANAANSKAVLNALKL

>  <soluble on expression in E. coli>
not soluble

$$$$
>  <sequenceContent>
GPGSMPQSAVMNVMVQAAMKAGRSLVRDYGEVQNLQVSLKGPADYVSQADRKAEKIIFNELSKARPKFGFLMEESEEIIGEDSQHRFIVDPLDGTTNFLHGIPFFAVSIALESQGKIVAGVIYNPINDELFTAERGSGAFFNDRRCRVSARRRLEDCVIATGMPHLGRPGHGTYLIELRNVMAEVSGIRRFGTAALDLAYVAAGRTDGFWEDNLQIWDMAAGILMVREAGGFVTDKEGGNDIFRKKNIIAGNEHIRIKLERALKKGI

>  <soluble on expression in E. coli>
soluble

$$$$
>  <sequenceContent>
MAHHHHHHMNFVFIYIVLISFFNKSRCDNELSVKGSLTVANLKISSKNNQENGILFVNEESEYKIGLNERSELIISKKKKPLVTIDEHENLNFFNLDLSVKILNIQGILKIMNVNQFQMFVHEDFSNSSNTKGWIGDQFFNYTSSCGGINLLGGYGKLSKGEIYKTFENIPSHSQIRIKCNFHFIDNWDNQTAYMKITTDEKEEKYYVWTDTHSQINKQNSINICGNTTGESKFFSIIDIIIPHNSNKLIIYFGTNIQKDEPNLISWGISNFQIYLI

>  <soluble on expression in E. coli>
not soluble

$$$$
>  <sequenceContent>
MGSDKIHHHHHHMNEAFLSLTPAQIRHRLHAAPELSGQETETARRVAGWLEQAGATRIVTGLGGHGVAGVFAGTLPGPRVMFRAELDGLPIDETAEIAWKSTCEHVAHSCGHDGHMAVLLGLAQRLAEQPPTHGETVLLFQPSEETGRGAREVVESSRFEEIAPDHVYALHNLPGKPLGEVSVREGAMTCASRGLIIRLNGLCAHAAHPEQGRNPALAMCRILQGLKRLPQQLPDDQGLVMVTLIHARLGEVAFGTSPGQAEVMATLRTEDDAMMRALAEASVALARAEAEEDDLGIEIDWCDVFQATRNHPAAVASIREAARSLNMPLTALPEAHRWSEDFGWLAAQGQGALLTLGAGERCLPLHNPGYDFPDDLLDTGIALFERLVRLHQSDV

>  <soluble on expression in E. coli>
not soluble

$$$$
>  <sequenceContent>
MNLKAMDAILEDCCDIVCSDYLPSAMIKSMCIVAERINNLNKAVSLFTSNPAKAVGIYDERGSIKENKKADLVLVDIDSEYPKVVNTIVNGKTVYKRELEHHHHHH

>  <soluble on expression in E. coli>
not soluble

$$$$
>  <sequenceContent>
MSLIPVVLSGGAGTRLWPVSREGQPKPFMRLPDGQTLLGKTYRRAAGLLAGHGEIVTVTNREHYFQSKDQFHAARLGRHRGHFILEPTGRNTAPAIAVAALGLQAEHGDAAVLVVMPADHLIRNEEAFREAVGHAARLAVAGHLVTFGVVPDAAETGFGYIELGDRLDEQGAAKVRRFVEKPDEETRRRYVESGGFLWNSGMFCFTASTLVDELAQHAPALLEQARACLAASAAVKMADGIQHELAGEGFAALPDISIDYALMERSARVAVVPAAFDWSDIGSWGAMSALLDADAEGNRGSGDTLFVDTRNTFVQSDGRLVATVGVDDLVVVDTSDALLIARADRVQEVRRVVQRLKDEREGHHHHHH

>  <soluble on expression in E. coli>
soluble

$$$$
>  <sequenceContent>
MGACWSDNPKKVLEMLSPMNIIAITRSIPENTPNSWFIYWLTKVEEGEVRENIYAISPTKLEILPDLVKKALKLGYDGVYIDGIEALVIENGFKSVAKFLLHIKDIVLAENKFIILTLDPRALKEEEIKIIEKEFKKLELSLEHHHHHH

>  <soluble on expression in E. coli>
not soluble

$$$$
>  <sequenceContent>
MANDGGAKLSKNLLRMKFMQRGLDAEVKKQLDEEEKRIISDEHWFLDLPELKAKENHIIEERSFVPCEDLVYGRMSFKGFNPDVEKLMLLMNAPREEEDEEEEDESMNKMETDITDEEMAKRYQSLVESMRKKFAKKRDRSAVSNKEDVNCNVTDDIRPKRAFMKPQD

>  <soluble on expression in E. coli>
soluble

$$$$
>  <sequenceContent>
GMTSPVAVIARFMPRPDARSALRALLDAMITPTRAEDGCRSYDLYESADGGELVLFERYRSRIALDEHRGSPHYLNYRAQVGELLTRPVAVTVLAPLDEASA

>  <soluble on expression in E. coli>
soluble

$$$$

====

methodNotes: soluble on expression in E. coli; label from the status in PepcDB or PDB records

>  <sequenceContent>
VTVGDQNGMGPSSGYVTRITNDAREDDMENNMKEVSSMIGNLRNMAIDMGNEIGSQNRQVDRIQQKAESNESRIDEANKKATKLLKN

>  <soluble on expression in E. coli>
soluble

$$$$
>  <sequenceContent>
MAHHHHHHMTVARDHDIDDHDTSFTSFGGERPPFERIPVPSMASKEYTENLPAFDSDRPMPPPRSVFERFSRVMQLQFGQDPDMPLLGSRAERKYRSWLDYVTSPPSPLLPRNYVDAYTRPNPCPEEYWWASWRWPRIKYVNAKVPPPVDGKYNDYYHYLAYKNWMERERDVYVAHANLVNEMAMRCLVKEGQYNAAKNCRHLYHKGFAMSRMEELNQTLLYMALTGNAAIRETPYPENFVEEKRKIYDDWLFRTRMKKPGDVA

>  <soluble on expression in E. coli>
not soluble

$$$$
>  <sequenceContent>
MAEEQQNSDQSNGGNVIPTPEEVATFLHKTVEEGGWEKCWEEEITPWDQGRATPLIVHLVDTSSLPLGRALVPGCGGGHDVVAMASPERFVVGLDISESALAKANETYGSSPKAEYFSFVKEDVFTWRPTELFDLIFDYVFFCAIEPEMRPAWAKSMYELLKPDGELITLMYPITDHVGGPPYKVDVSTFEEVLVPIGFKAVSVEENPHAIPTRKGKEKLGRWKKIN

>  <soluble on expression in E. coli>
not soluble

$$$$
>  <sequenceContent>
MSDKIIHLTDDSFDTDVLKADGAILVDFWAEWCGPIEESDDRRYDLVGPCKMIAPILDEIADEYQGKLTVAKLNIDQNPGTAPKYGIRGIPTLLLFKNGEVAATKVGALSKGQLKEFLDANLA

>  <soluble on expression in E. coli>
soluble

$$$$
>  <sequenceContent>
MGSDKIHHHHHHMQIVPLHSSHYPHIASVFHQAVRAAAGKGYTQAQCEAWSRGVRDRRYWRSRLGRSLVLVALNVDEVVGFIDCELEHPDKGYIGHLYVAPTHQGRGIGGKLLDALIRQAPALGIGSLTTDASLHSEPLFAAKGFSNVGRYFQQKSGQVLPGFAMTLPLPFYIDRMQGSDLASIARLFHEAVQGASEYYSEAERHAWSAALRDEATWQGKLAPSKVWVARKDSGIMGFINLLPKSIGEAEIDCLFTSPVLTRCGVATSLYWVLEQQARRDGVRRLSVEASYFARPFFQSRGFTELSRNEHPRHGQILVNFSMEKWLSRPEGG

>  <soluble on expression in E. coli>
not soluble

$$$$
>  <sequenceContent>
MSLTTGAAVAFVDTLHDAAVRDLGWLLASPSMLTAVPGAPLARPWPDATGQAAVEAWLAALDAQPGPLHRALDGFRPTRLGRYAECLLEYFLTHGPSLRLVAANLPLRSNGRTLGEVDFLVDTPDGRRLHWEMAVKCYLCAPVRDGASLADFVGPNLVDRFDRKRSRLLDHQLRMGEHDGFARLGYGAPADAQMFIKGWLFHPYGAPVPPVSVEIAPDHPRGFWLTHGQWPAWAAAQRDGAAWSVLPRLAWLAPRRAVAGAGVEPEPLASALELPAVLATRQTPDMIAIHEKGGDGTWRETARGFVVPDDWPARAQAFAAQDHEGHHHHHH

>  <soluble on expression in E. coli>
soluble

$$$$
